- Method description: Drug metabolism in rat liver microsomes measured after 120 mins in presence of NADPH generating system by UPLC analysis
- Assay type: ADME, Microsome
- Condition summary: liver microsomes, read-out: Drug metabolism
Assay endpoint: metabolised at 2 h (%)
Just the number in %, nothing appended.

CCn1cncc1-c1c[nH]c2ccc(C(N)=O)cc12 : 7

Okay, now this molecule:
Q) Record request: metabolised at 2 h value, item NCCc1c[nH]c2ccc(C(N)=O)cc12
A) 20

###

- System: CYP2C9 (Homo sapiens)
- Sequence (P11712 whole entry): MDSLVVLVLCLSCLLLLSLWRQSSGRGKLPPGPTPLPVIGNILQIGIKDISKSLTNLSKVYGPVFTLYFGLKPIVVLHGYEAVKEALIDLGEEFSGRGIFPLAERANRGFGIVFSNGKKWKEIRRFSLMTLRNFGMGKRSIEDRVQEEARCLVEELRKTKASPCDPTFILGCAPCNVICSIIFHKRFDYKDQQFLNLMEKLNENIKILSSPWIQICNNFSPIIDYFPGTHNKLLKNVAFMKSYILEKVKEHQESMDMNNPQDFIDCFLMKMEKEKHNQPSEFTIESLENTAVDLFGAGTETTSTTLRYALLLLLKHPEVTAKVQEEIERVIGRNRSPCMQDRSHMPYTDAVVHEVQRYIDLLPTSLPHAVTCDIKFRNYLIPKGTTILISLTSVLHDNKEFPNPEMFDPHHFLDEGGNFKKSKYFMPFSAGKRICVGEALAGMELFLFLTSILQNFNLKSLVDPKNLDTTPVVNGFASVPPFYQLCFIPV
- Method description: Inhibition of CYP2C9 (unknown origin) assessed as residual activity at 25 uM using beetle D-luciferin as substrate by CYP450-Glo assay relative to control
- Assay type: ADME
- Condition summary: CYP2C9 enzyme (unknown origin), probe beetle D-luciferin, read-out: Activity
Assay endpoint: activity at 25 µM (%)
Just the number in %, nothing appended.

These solved cases illustrate the format of a correct answer.
NCCc1c[nH]c2ccc(C(N)=O)cc12 : 78.7
CCn1cncc1-c1c[nH]c2ccc(C(N)=O)cc12 : 104

Okay, now this molecule:
Q) Record request: activity at 25 µM value, item Cn1cncc1-c1c[nH]c2ccc(C(N)=O)cc12
A) 37.2

Values were extracted from ChEMBL document CHEMBL4368858.
